- System: NCI-H23
- protocol description: NCI tumour cell line growth inhibition, 48 h
Activity calls are given as the source filed them. Cut-off read from the data, not from the text of the source: active = GI50 up to about 1.1 µM and inactive = higher.
Log the outcome using a class from yes (1) = active, no (0) = inactive

Record excerpt, results attached:
compound	target system	class label
CCOc1cc2cnc3c4cc(OC)c(OC)cc4ccc3c2cc1OC	NCI-H23	no (0)
COC/C=C\[C@]1(O)CCCC[C@@H]1CC(OC)OC	NCI-H23	no (0)
CC[C@@]1(O)C(=O)OCc2c1cc1n(c2=O)Cc2c-1nc1ccc(O)cc1c2[Si](C)(C)C(C)(C)C [AR-67]	NCI-H23	yes (1)

Prompt line: I would be grateful if you could indicate the recorded call for CC(=O)OC1C(=O)C(O)C(C)OC1O[C@@H]1C[C@@]2(C)[C@@H]3CC=C4[C@@H](C[C@H](O)C(=O)C4(C)C)[C@]3(C)C(=O)C[C@]2(C)[C@H]1[C@@](C)(O)C(=O)/C=C/C(C)(C)O (some centres undefined) .
Response line: no (0)

----------
- Test system: SR
- protocol description: NCI tumour cell line growth inhibition, 48 h
Calls of active or inactive are those of the source. No stated cut-off is given here; in the data, active = GI50 up to about 1.1 µM and inactive = higher.
Log the outcome using a class from true (1) (active), false (0) (inactive)

compound	class label
Clc1ccc(CNc2nc3ccccc3nc2-c2cccs2)c(Cl)c1	false (0)
COCCN(C(=O)c1ccccc1)C1CCC(=O)c2[nH]c3ccccc3c21 (stereo unspecified)	false (0)
CC[C@@]1(O)C(=O)OCc2c1cc1n(c2=O)Cc2c-1nc1ccc(O)cc1c2[Si](C)(C)C(C)(C)C	true (1)

Prompt line: I would be grateful if you could indicate the recorded call for `O=S1(=O)CSc2ccc3ccccc3c2-c2c1ccc1ccccc21` .
Response line: false (0)

----------
- Tested on: PC-3
- protocol description: NCI tumour cell line growth inhibition, 48 h
Activity calls are given as the source filed them. Rule as the data show it: active = GI50 up to about 1.1 µM and inactive = higher.
readout type: GI50

Example results:
> print(dat)
                                   molecule       reported.value
1  COc1cc(C2SC(=N)Nc3c2c(C)nn3C(=O)Cc2ccccc2)cc(OC)c1OC (centres undefined)  > 100 µM (inactive)
2  O=C1c2cc3c(cc2CC12Cc1ccc4c(c1C2=O)CCC4)CCCC3 (centres undefined)  > 100 µM (inactive)
3  O=C1/C(=C/c2ccccc2S)N=C(c2ccccc2)N1c1ccc2c(c1)Sc1cc(N3C(=O)/C(=C/c4ccccc4S)N=C3c3ccccc3)ccc1N2   21.4 µM (inactive)

Prompt line: Tell me the measured GI50 of `COc1ccc(Nc2nnc(-c3nsc4ccccc34)s2)cc1` , please.
Response line: > 100 µM (inactive)

----------
- Tested on: COLO 205
- protocol description: NCI tumour cell line growth inhibition, 48 h
Active and inactive are the calls of the source. Cut-off read from the data, not from the text of the source: active = GI50 up to about 1.1 µM and inactive = higher.
Log the outcome using a class from True for active, False for inactive

Record excerpt, results attached:
molecule	class label
CC(C)=CCC/C(C)=C/CC/C(C)=C/Cc1c(O)c2ccccc2oc1=O	False
CC(C)(C)OC(=O)NNCC(O)COc1ccccc1 (stereo not drawn)	False
Cc1cc(C)nc(Sc2c([N+](=O)[O-])ncn2C)n1	False
COC(=O)N/N=C(\C)CC(=O)Nc1cccc([N+](=O)[O-])c1	False
COP(=O)(OC)C(O)/C=C(\Cl)c1ccc(Cl)cc1 (stereo not drawn)	False
Cc1nc2cc3nc4ccccc4c(O)c3cc2s1	False
Cc1ccc(S(=O)(=O)CN2C(=O)C(c3ccccc3)(c3ccccc3)C23OC(c2ccc(Cl)cc2)=CC3=O)cc1 (stereo not drawn)	False
COC(=O)CC(C)(N[S+]([O-])c1ccc(C)cc1)c1ccccc1 (stereo not drawn)	False

Prompt line: I would be grateful if you could indicate the recorded call for `Clc1cc(Cl)cc(/C=N/C23CC4CC(CC(C4)C2)C3)c1` .
Response line: False

----------
Measured GI50, listed per entry for reference.
- System: SK-MEL-28
- protocol description: NCI tumour cell line growth inhibition, 48 h
Calls of active or inactive are those of the source. Cut-off read from the data, not from the text of the source: active = GI50 up to about 1.1 µM and inactive = higher. Residues, ends and D or L forms follow the SMILES beside them. *: point of attachment. Boc = CC(C)(C)OC(=O)*; OBn = c1ccc(CO*)cc1

Example results:
compound	GI50
Cc1cc(NS(=O)(=O)c2ccc(NC(=O)c3ccc(Cl)c4c(Nc5ccc(S(=O)(=O)N=C(N)N)cc5)c5ccccc5nc34)cc2)no1	87.5 µM (inactive)
COc1ccc(C(=O)C(C(=O)C(=O)Nc2ccc(Cl)c(Cl)c2)c2ccc(OC)cc2)cc1 (centres undefined)	> 100 µM (inactive)
CSc1nc2c(c(=O)[nH]1)N=C(c1ccc(Cl)cc1)CC(c1ccccc1)N2 (centres undefined)	17.3 µM (inactive)
Cc1n[nH]c(=O)n1-n1cccc1	> 100 µM (inactive)
CCCCCCCCCCCCCCCCOP(=O)([O-])OCC[N+](C)(C)C	27.9 µM (inactive)
CC(NC(=O)CNC(=O)OC(C)(C)C)C(=O)NC(Cc1ccccc1)C(=O)OCc1ccccc1 (stereo not drawn) (Boc-Gly-Ala-Phe-OBn; configuration not given here)	36.5 µM (inactive)
O=C(OCCN=c1c2ccccc2ccc2ccccc12)c1ccc([N+](=O)[O-])cc1	> 100 µM (inactive)
Cc1nc2ccccc2c(=O)n1CC(=O)O	> 100 µM (inactive)

As a next step, examine the compound that follows.
Prompt line: Tell me the measured GI50 of `COC/C=C\[C@]1(O)CCCC[C@@H]1CC(OC)OC` , please.
Response line: > 100 µM (inactive)

----------
- System: LXFL 529
- protocol description: NCI tumour cell line growth inhibition, 48 h
Activity calls are given as the source filed them. Cut-off read from the data, not from the text of the source: active = GI50 up to about 1.1 µM and inactive = higher.
readout type: GI50

Example results:
> print(dat)
                                   compound       reported.value
1  COc1cc([C@@H]2OCC3C(c4ccc5c(c4)OCO5)OCC32)cc(OC)c1OC (stereo not given in full)   43.1 µM (inactive)
2  Clc1ccc(CNc2nc3ccccc3nc2-c2cccs2)c(Cl)c1  > 100 µM (inactive)

Prompt line: Tell me the measured GI50 of CC(C)C(NCc1c2ccccc2[n+]([O-])c2ccccc12)C(=O)O (stereo not given) , please.
Response line: 35.1 µM (inactive)

Prompt line: Can you check `O=[N+]([O-])c1ccc(-c2csc(=[N+]3CCCCC3)s2)cc1` next?
Response line: 5.93 µM (inactive)

Prompt line: Can you check `COc1cc(C2(C)SCCCS2)c(I)c(OC)c1OC` next?
Response line: > 100 µM (inactive)

Prompt line: Can you check COC(=O)C(CC(=O)Nc1ccc(C)cc1)C(=O)C(=O)Nc1c(C(C)C)cccc1C(C)C (stereo not given) next?
Response line: 99.1 µM (inactive)

Prompt line: Can you check `CC(C)NC(=O)OCc1nnn2c1CCC2` next?
Response line: > 100 µM (inactive)

Prompt line: Can you check CC(=O)OC1CC2C(C)(C)C(=O)C=C[C@]2(C)C2CCC3(C)C(c4ccoc4)C(=O)C4OC43[C@]12C (stereo not given in full) next?
Response line: 22.6 µM (inactive)

Prompt line: Can you check `COc1ccccc1OCc1nnc(SCC(=O)O)n1-c1ccccc1` next?
Response line: > 100 µM (inactive)

Prompt line: Can you check Cc1[nH]c2ccccc2c1C1=NO/C(=N\O)C(c2c(C)[nH]c3ccccc23)C1 (stereo not given) next?
Response line: 35.6 µM (inactive)

----------
- Tested on: NCI-H23
- protocol description: NCI tumour cell line growth inhibition, 48 h
Active and inactive are the calls of the source. No stated cut-off is given here; in the data, active = GI50 up to about 1.1 µM and inactive = higher.
Log the outcome using a class from 1.0 = active, 0.0 = inactive

Record excerpt, results attached:
compound	class label
N#CC(C(=O)C(=O)NCCCNC(=O)C(=O)C(C#N)c1ccccc1)c1ccccc1 (configuration not stated)	0.0
COc1ccc(N2C(=O)/C(=C/c3ccc(N(CCC#N)CCC#N)cc3C)N=C2/C=C\c2ccccc2)cc1	0.0
NC(=S)NNC(=S)NC(=O)c1ccco1	0.0
COc1c(Cl)cc(NC(=S)C#N)cc1Cl	0.0
C=C1C2C[C@@H]3O[C@H]4C[C@H]5O[C@@]6(C[C@@H]7O[C@]8(C[C@H](C)[C@@H]9O[C@@H]%10CC(CO)O[C@@H]%10C[C@@H]9O8)C[C@H](C)[C@@H]7O6)C[C@H]5O[C@H]4[C@H](C)[C@H]3OC(=O)C[C@H]3CC[C@@H]4OC5[C@H]6O[C@]7(CC[C@H]8CC(=C)[C@H](CC[C@@H](C[C@H]1C)O2)O8)CC6O[C@@H]5[C@@H](O7)[C@H]4O3 (some centres not stated)	1.0

Prompt line: I would be grateful if you could indicate the recorded call for `Nc1nc(N)c2cc(Sc3cccc(C(F)(F)F)c3)ccc2n1` .
Response line: 0.0

Prompt line: Can you check COC(=O)C1=C(C(=O)OC)C2(C)OC1C(=O)C21CC1 (configuration not stated) next?
Response line: 0.0

----------
- System: SNB-75
- protocol description: NCI tumour cell line growth inhibition, 48 h
Calls of active or inactive are those of the source. Rule as the data show it: active = GI50 up to about 1.1 µM and inactive = higher.
readout type: GI50

> print(dat)
                                   molecule       reported.value
1        NC(=O)NNCc1c(-c2ccccc2)no[n+]1[O-]  > 100 µM (inactive)
2  COc1ccc(-c2c(-c3ccccc3)c(C)c3ccccn23)cc1  > 100 µM (inactive)
3    COc1c(-c2ccc(F)cc2)oc2cc(O)cc(O)c2c1=O   19.2 µM (inactive)

Prompt line: Tell me the measured GI50 of CC(=O)OC1C(CCl)OC(N=[N+]=[N-])C(OC(C)=O)C1OC(C)=O (stereo unspecified) , please.
Response line: > 100 µM (inactive)

Prompt line: Can you check CC1N=C(c2ccccc2)OC1=O (stereo unspecified) next?
Response line: > 100 µM (inactive)

Prompt line: Can you check O=C1c2cc3c(cc2CC12Cc1ccc4c(c1C2=O)CCC4)CCCC3 (stereo unspecified) next?
Response line: 5.7 µM (inactive)

Hello, the source for this data is ChEMBL document CHEMBL1201862, in case you need it.
